assay-comment: in vitro bioavailability, dialysis tubing procedure
Type: in vitro ADME
test-conditions: sum of pepsin (stage 1) and pancreatin (stage 2) bioavailability
total in vitro bioavailability overview
Please respond with the number in % and leave the unit unwritten.

INSERT INTO results (compound, attribute_measured, experimental_value) VALUES
  ('O=c1c(O)c(-c2ccc(O)c(O)c2)oc2cc(O)ccc12 [Compound 3S0, Fisetin, reference compound]', 'total in vitro bioavailability', 16.19),
  ('NC(=O)COc1ccc(-c2cc(=O)c3c(OCC(N)=O)cc(OCC(N)=O)cc3o2)cc1', 'total in vitro bioavailability', 22.20),
  ('NC(=O)COc1ccc(-c2oc3cc(OCC(N)=O)cc(OCC(N)=O)c3c(=O)c2OCC(N)=O)cc1', 'total in vitro bioavailability', 21.34),
  ('O=c1cc(-c2ccc(O)c(O)c2)oc2cc(O)cc(O)c12 [Compound 5S0, luteolin, reference compound]', 'total in vitro bioavailability', 19.29),
  ('NC(=O)COc1ccc2c(=O)c(OCC(N)=O)c(-c3ccc(OCC(N)=O)c(OCC(N)=O)c3)oc2c1', 'total in vitro bioavailability', 34.81);

I would be grateful if you could share the reported total in vitro bioavailability for NC(=O)COc1cc(OCC(N)=O)c2c(=O)cc(-c3ccc(OCC(N)=O)c(OCC(N)=O)c3)oc2c1 . 34.87

I would be grateful if you could share the reported total in vitro bioavailability for O=c1cc(-c2ccc(O)cc2)oc2cc(O)cc(O)c12 [Compound 2S0, apigenin, reference compound] . 16.59

I would be grateful if you could share the reported total in vitro bioavailability for O=c1c(O)c(-c2ccc(O)cc2)oc2cc(O)cc(O)c12 [Compound 4S0, kaempferol, reference compound] . 15.40

I would be grateful if you could share the reported total in vitro bioavailability for NC(=O)COc1cc(OCC(N)=O)c2c(=O)c(OCC(N)=O)c(-c3ccc(OCC(N)=O)c(OCC(N)=O)c3)oc2c1 . 20.70
